experiment: Stability in human simulated gastric fluid; type: ADME, Stomach; conditions: simulated gi fluid
Recorded Metric: Stability

- Compound: "CC(NP(=O)(OC[C@H]1O[C@@H](n2cnc3c(N(C)NS(C)(=O)=O)ncnc32)[C@](C)(O)[C@@H]1O)Oc1ccccc1)C(=O)OCc1ccccc1 (stereo partly drawn)"
  Result Value: "Stable"
- Compound: "COC(=O)CNP(=O)(OC[C@H]1O[C@@H](n2cnc3c(N(C)NS(C)(=O)=O)ncnc32)[C@](C)(O)[C@@H]1O)Oc1ccccc1 (stereo partly drawn)"
  Result Value: "Stable"
- Compound: "CC(C)OC(=O)C(C)NP(=O)(OC[C@H]1O[C@@H](n2cnc3c(N(C)NS(C)(=O)=O)nc(N)nc32)[C@](C)(O)[C@@H]1O)Oc1ccc(Cl)cc1 (stereo partly drawn)"
  Result Value: "Stable"

====

assay: Stability in human simulated intestinal fluid at 1 mg/mL after 60 mins; type: ADME; details: read-out: Stability
Recorded Metric: remaining at 1 h, 1 mg/mL (%)

A = COC(=O)C(C)(C)NP(=O)(OC[C@H]1O[C@@H](n2cnc3c(N(C)NS(C)(=O)=O)ncnc32)[C@](C)(O)[C@@H]1O)Oc1ccc(Cl)cc1 (stereo partly drawn)
B = COC(=O)CNP(=O)(OC[C@H]1O[C@@H](n2cnc3c(N(C)NS(C)(=O)=O)nc(N)nc32)[C@](C)(O)[C@@H]1O)Oc1ccccc1 (stereo partly drawn)
C = CC(C)OC(=O)C(C)NP(=O)(OC[C@H]1O[C@@H](n2cnc3c(N(C)NS(C)(=O)=O)ncnc32)[C@](C)(O)[C@@H]1O)Oc1ccc(Cl)cc1 (stereo partly drawn)
// query Sort the entries above numerically by remaining at 1 h, 1 mg/mL, high end first. Would you mind listing the labels in the order asked for?
// result A, C, B
(A: 100%, C: 48%, B: 0%)

====

test system: Plasma; experiment: Stability in human plasma; assay type: ADME, cell-free

- Compound: "CC(NP(=O)(OC[C@H]1O[C@@H](n2cnc3c(N(C)NS(C)(=O)=O)ncnc32)[C@](C)(O)[C@@H]1O)Oc1ccccc1)C(=O)OCc1ccccc1 (stereo partly drawn)"
  Stability: "Stable"
- Compound: "CC(C)OC(=O)C(C)NP(=O)(OC[C@H]1O[C@@H](n2cnc3c(N(C)NS(C)(=O)=O)nc(N)nc32)[C@](C)(O)[C@@H]1O)Oc1ccc(Cl)cc1 (stereo partly drawn)"
  Stability: "Stable"
- Compound: "COC(=O)CNP(=O)(OC[C@H]1O[C@@H](n2cnc3c(N(C)NS(C)(=O)=O)nc(N)nc32)[C@](C)(O)[C@@H]1O)Oc1ccccc1 (stereo partly drawn)"
  Stability: "Stable"

====

assay: Stability in human simulated gastric fluid; assay type: ADME, Stomach; conditions: simulated gi fluid

- Compound: "COC(=O)CNP(=O)(OC[C@H]1O[C@@H](n2cnc3c(N(C)NS(C)(=O)=O)nc(N)nc32)[C@](C)(O)[C@@H]1O)Oc1ccc(Cl)cc1 (stereo partly drawn)"
  Stability: "Stable"
- Compound: "CC(NP(=O)(OC[C@H]1O[C@@H](n2cnc3c(N(C)NS(C)(=O)=O)nc(N)nc32)[C@](C)(O)[C@@H]1O)Oc1ccc(Cl)cc1)C(=O)OCc1ccccc1 (stereo partly drawn)"
  Stability: "Stable"
- Compound: "COC(=O)CNP(=O)(OC[C@H]1O[C@@H](n2cnc3c(N(C)NS(C)(=O)=O)ncnc32)[C@](C)(O)[C@@H]1O)Oc1ccc(Cl)cc1 (stereo partly drawn)"
  Stability: "Stable"
